# System: Human gammaherpesvirus 4
# procedure-details: TPA-induced EBV early antigen activation in Raji cells at 3.2 nmol relative to control
EBV-EA activation listing for selected compounds.
measured-property: EBV-EA activation (%)

>>> print(df.to_string())
                                  smiles_str             system_tested  value_observed
 0  COc1cc(/C=C/Cc2ccc(OC)c(O)c2O)ccc1OC(C)=O  Human gammaherpesvirus 4            74.6
 1  COc1cc(/C=C/Cc2ccc(O)c(O)c2OC)ccc1OC(C)=O  Human gammaherpesvirus 4              74
 2       COc1cc(/C=C/Cc2ccc(OC)c(O)c2O)ccc1O  Human gammaherpesvirus 4            73.2
 3           COc1c(O)ccc(C/C=C/c2ccccc2)c1OC  Human gammaherpesvirus 4              74
 4             COc1ccc(C/C=C/c2ccccc2)c(O)c1  Human gammaherpesvirus 4            73.7
 5  COc1cc(/C=C/C(=O)CC(=O)/C=C/c2ccc(O)c(OC)c2)ccc1O  Human gammaherpesvirus 4            81.7
 6       COc1cc(OCC=C(C)C)ccc1C/C=C/c1ccccc1  Human gammaherpesvirus 4            65.2
 7           COc1ccc(C/C=C/c2ccccc2)c(OC)c1O  Human gammaherpesvirus 4            76.9
 8   COc1c(C/C=C/c2ccccc2)ccc(OCC=C(C)C)c1OC  Human gammaherpesvirus 4            68.2
 9    COc1ccc(C/C=C/c2ccccc2)c(OCC=C(C)C)c1O  Human gammaherpesvirus 4            64.5
10          COc1ccc(C/C=C/c2ccccc2)c(OC)c1OC  Human gammaherpesvirus 4            76.6
11               COc1cc(O)ccc1C/C=C/c1ccccc1  Human gammaherpesvirus 4            73.2
12  COc1c(C/C=C/c2ccccc2)ccc(O)c1C/C=C/c1ccccc1  Human gammaherpesvirus 4            68.2

All figures here come from ChEMBL document CHEMBL1147206.
